# STUDY TARGET: human δ opioid receptors (hDOR) (Homo sapiens, UniProt P41143)
# Construct: expressed in transfected cells; host or cells: HN9.10 neuroblastoma cell line, pCDNA3, neomycin-selected clones
# Sequence (P41143 whole entry): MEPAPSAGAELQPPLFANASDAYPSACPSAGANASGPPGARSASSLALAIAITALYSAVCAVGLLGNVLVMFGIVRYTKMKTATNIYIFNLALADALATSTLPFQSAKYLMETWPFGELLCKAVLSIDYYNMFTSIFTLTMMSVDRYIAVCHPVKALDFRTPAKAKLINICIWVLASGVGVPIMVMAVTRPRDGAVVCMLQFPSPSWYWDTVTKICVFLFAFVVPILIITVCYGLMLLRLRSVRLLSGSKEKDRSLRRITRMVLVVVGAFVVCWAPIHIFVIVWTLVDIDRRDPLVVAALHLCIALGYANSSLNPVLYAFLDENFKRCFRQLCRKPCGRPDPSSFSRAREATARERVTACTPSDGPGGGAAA
# EXPERIMENTAL PROTOCOL: Radioligand competition binding, [3H]DPDPE, hDOR membranes
# REPORTED CONDITIONS: read-out: Ki, hDOR, [3H]DPDPE
ASSAY ENDPOINT: pKi
# pKi: negative log10 of molar concentration; output just the value

Incoming: Entry CC(C)C[C@H](NC(=O)[C@@H]1CCCN1C(=O)[C@H](CC[S+](C)[O-])NC(=O)[C@H](Cc1ccccc1)NC(=O)CNC(=O)[C@@H](C)NC(=O)[C@@H](N)Cc1ccc(O)cc1)C(=O)N[C@@H](Cc1c[nH]c2ccccc12)C(=O)OCc1cc(C(F)(F)F)cc(C(F)(F)F)c1 (stereo partly shown) has what pKi?
Outgoing: 8.32

---

# STUDY TARGET: rat μ opioid receptors (rMOR) (Rattus norvegicus, UniProt P33535)
# Construct: expressed in transfected cells; host or cells: HN9.10 neuroblastoma cell line, pCDNA3, neomycin-selected clones
# Sequence (P33535 whole entry): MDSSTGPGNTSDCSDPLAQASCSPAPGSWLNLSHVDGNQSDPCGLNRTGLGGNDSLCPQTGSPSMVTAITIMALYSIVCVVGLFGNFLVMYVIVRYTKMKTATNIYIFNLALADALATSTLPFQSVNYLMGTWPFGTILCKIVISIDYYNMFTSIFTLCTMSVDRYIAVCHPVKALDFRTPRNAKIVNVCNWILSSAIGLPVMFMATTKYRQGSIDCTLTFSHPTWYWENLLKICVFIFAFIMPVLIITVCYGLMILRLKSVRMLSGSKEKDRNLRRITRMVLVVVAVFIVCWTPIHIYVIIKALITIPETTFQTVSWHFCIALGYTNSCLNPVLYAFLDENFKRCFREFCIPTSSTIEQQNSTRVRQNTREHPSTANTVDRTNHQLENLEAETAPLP
# EXPERIMENTAL PROTOCOL: biochemical
# Format: biochemical
# REPORTED CONDITIONS: Table 32; read-out: GTP rMOR EMax
Peptide text beside a SMILES is read from it.
Would you mind telling me the reported Emax of each entry?
Give the figure together with its unit, number first.

Incoming: I am curious: what Emax value has been reported for C[C@@H](NC(=O)[C@H](Cc1ccccc1)NC(=O)CNC(=O)[C@@H](C)NC(=O)[C@@H](N)Cc1ccc(O)cc1)C(=O)N[C@@H](Cc1c[nH]c2ccccc12)C(=O)OCc1cc(C(F)(F)F)cc(C(F)(F)F)c1 [NP40] (HELM PEPTIDE1{Y.[dA].G.F.[dA].W.[FC(F)(F)c1cc(CO[*:1])cc(C(F)(F)F)c1]}$$$$V2.0; N-terminus assumed) ?
Outgoing: 19%

Incoming: Emax lookup needed for CC[C@H](NC(=O)[C@H](Cc1ccccc1)NC(=O)CNC(=O)[C@@H](C)NC(=O)[C@@H](N)Cc1ccc(O)cc1)C(=O)N[C@@H](Cc1c[nH]c2ccccc12)C(=O)OCc1cc(C(F)(F)F)cc(C(F)(F)F)c1 [NP33] (HELM PEPTIDE1{Y.[dA].G.F.[Abu].W.[FC(F)(F)c1cc(CO[*:1])cc(C(F)(F)F)c1]}$$$$V2.0; N-terminus assumed) , thanks.
Outgoing: 32%

---

# STUDY TARGET: human δ opioid receptors (hDOR) (Homo sapiens)
# Construct: expressed in transfected cells; host or cells: HN9.10 neuroblastoma cell line, pCDNA3, neomycin-selected clones
# EXPERIMENTAL PROTOCOL: [35S]GTP-γ-S binding assay, hDOR
# Assay type: biochemical
# REPORTED CONDITIONS: Table 32; read-out: GTP hDOR EC50
pEC50: −log10 of the molar value. Peptide text beside a SMILES is read from it.
pEC50 below 8 gives f; pEC50 at or above it gives t.

Incoming: Identify whether the reported pEC50 of the following compound is 8 or greater: CC[C@H](NC(=O)[C@H](Cc1ccccc1)NC(=O)CNC(=O)[C@@H](C)NC(=O)[C@@H](N)Cc1ccc(O)cc1)C(=O)N[C@@H](Cc1c[nH]c2ccccc12)C(=O)OCc1cc(C(F)(F)F)cc(C(F)(F)F)c1 [NP33] (HELM PEPTIDE1{Y.[dA].G.F.[Abu].W.[FC(F)(F)c1cc(CO[*:1])cc(C(F)(F)F)c1]}$$$$V2.0; N-terminus assumed)
Outgoing: t

Incoming: # check: pEC50 of CSCC[C@H](NC(=O)[C@H](Cc1ccccc1)NC(=O)CNC(=O)[C@@H](C)NC(=O)[C@@H](N)Cc1ccc(O)cc1)C(=O)N[C@@H](Cc1c[nH]c2ccccc12)C(=O)OCc1cc(C(F)(F)F)cc(C(F)(F)F)c1 [NP38] (HELM PEPTIDE1{Y.[dA].G.F.M.W.[FC(F)(F)c1cc(CO[*:1])cc(C(F)(F)F)c1]}$$$$V2.0; N-terminus assumed) is greater than or equal to 8
Outgoing: t

Incoming: Reported pEC50 at or above 8? C[C@@H](NC(=O)[C@@H](N)Cc1ccc(O)cc1)C(=O)NCC(=O)N[C@@H](Cc1ccccc1)C(=O)NC(C)(C)C(=O)N[C@@H](Cc1c[nH]c2ccccc12)C(=O)OCc1cc(C(F)(F)F)cc(C(F)(F)F)c1 [NP41] (HELM PEPTIDE1{Y.[dA].G.F.[Aib].W.[FC(F)(F)c1cc(CO[*:1])cc(C(F)(F)F)c1]}$$$$V2.0; N-terminus assumed)
Outgoing: f

Incoming: I'd appreciate it if you could say whether C[C@H](NC(=O)[C@H](Cc1ccccc1)NC(=O)CNC(=O)[C@@H](C)NC(=O)[C@@H](N)Cc1ccc(O)cc1)C(=O)N[C@@H](Cc1c[nH]c2ccccc12)C(=O)OCc1cc(C(F)(F)F)cc(C(F)(F)F)c1 [NP31] (HELM PEPTIDE1{Y.[dA].G.F.A.W.[FC(F)(F)c1cc(CO[*:1])cc(C(F)(F)F)c1]}$$$$V2.0; N-terminus assumed) has pEC50 at least equal to 8.
Outgoing: t

Incoming: Hi, just wondering whether C[C@@H](NC(=O)[C@H](Cc1ccccc1)NC(=O)CNC(=O)[C@@H](C)NC(=O)[C@@H](N)Cc1ccc(O)cc1)C(=O)N[C@@H](Cc1c[nH]c2ccccc12)C(=O)OCc1cc(C(F)(F)F)cc(C(F)(F)F)c1 [NP40] (HELM PEPTIDE1{Y.[dA].G.F.[dA].W.[FC(F)(F)c1cc(CO[*:1])cc(C(F)(F)F)c1]}$$$$V2.0; N-terminus assumed) shows pEC50 of 8 or higher.
Outgoing: f

Incoming: I'd appreciate it if you could say whether CC(C)C[C@H](NC(=O)[C@H](Cc1ccccc1)NC(=O)CNC(=O)[C@@H](C)NC(=O)[C@@H](N)Cc1ccc(O)cc1)C(=O)N[C@@H](Cc1c[nH]c2ccccc12)C(=O)OCc1cc(C(F)(F)F)cc(C(F)(F)F)c1 [NP37] (HELM PEPTIDE1{Y.[dA].G.F.L.W.[FC(F)(F)c1cc(CO[*:1])cc(C(F)(F)F)c1]}$$$$V2.0; N-terminus assumed) has pEC50 at least equal to 8.
Outgoing: t
